system: C6; test: Cytotoxicity against rat C6 cells after 24 hrs by MTT assay; format: functional, cell-based; settings: C6, 24 h
// returns not met unless IC50 is strictly below 80 µg/mL, in which case met

chemSmiles	qualitativeLabel
Cn1nnnc1SCC(=O)N/N=c1/scc(-c2ccc([N+](=O)[O-])cc2)n1-c1ccccc1	not met
O=C(CSc1ncccn1)N/N=c1/scc(-c2ccc(Br)cc2)n1-c1ccccc1	not met

For "Cc1ccc(-c2cs/c(=N/NC(=O)CSc3nnnn3C)n2-c2ccccc2)cc1" , is the recorded IC50 below the cut-off of 80 µg/mL?
met

For "N#Cc1ccc(-c2cs/c(=N/NC(=O)CSc3nnnn3-c3ccccc3)n2-c2ccccc2)cc1" , is the recorded IC50 below the cut-off of 80 µg/mL?
not met

For "Cc1nnc(SCC(=O)N/N=c2/scc(-c3ccccc3)n2-c2ccccc2)s1" , is the recorded IC50 below the cut-off of 80 µg/mL?
not met

For "O=C(CSc1nnnn1-c1ccccc1)N/N=c1/scc(-c2ccc(F)cc2)n1-c1ccccc1" , is the recorded IC50 below the cut-off of 80 µg/mL?
met

For "Cc1ccc(-c2cs/c(=N/NC(=O)CSc3ncccn3)n2-c2ccccc2)cc1" , is the recorded IC50 below the cut-off of 80 µg/mL?
not met

For "O=C(CSc1ncccn1)N/N=c1/scc(-c2ccc(Cl)cc2)n1-c1ccccc1" , is the recorded IC50 below the cut-off of 80 µg/mL?
not met

For "Cc1nnc(SCC(=O)N/N=c2/scc(-c3ccc(F)cc3)n2-c2ccccc2)s1" , is the recorded IC50 below the cut-off of 80 µg/mL?
met

For "COc1ccc(-c2cs/c(=N/NC(=O)CSc3ncccn3)n2-c2ccccc2)cc1" , is the recorded IC50 below the cut-off of 80 µg/mL?
not met

====

The molecules listed here are annotated with their viability at 6 µg/mL.
system: C6; test: Cytotoxicity against rat C6 cells assessed as cell viability at 6 ug/ml after 24 hrs by MTT assay relative to control; type: functional; settings: C6, 24 h, read-out: Activity
Kindly format the answer as number then unit.

Check out these entries, answers already filled in.
chemSmiles	viability at 6 µg/mL
Cn1cnnc1SCC(=O)N/N=c1/scc(-c2ccc(C#N)cc2)n1-c1ccccc1	70.2%
O=C(CSc1nnnn1-c1ccccc1)N/N=c1/scc(-c2ccc(Br)cc2)n1-c1ccccc1	61.8%
Cc1ccc(-c2cs/c(=N/NC(=O)CSc3nncn3C)n2-c2ccccc2)cc1	74.6%
O=C(CSc1nnnn1-c1ccccc1)N/N=c1/scc(-c2ccc(Cl)cc2)n1-c1ccccc1	77.4%
Cc1ccc(-c2cs/c(=N/NC(=O)CSc3nnc(C)s3)n2-c2ccccc2)cc1	65.9%

Query viability at 6 µg/mL on C6 for "Cn1nnnc1SCC(=O)N/N=c1/scc(-c2ccccc2)n1-c1ccccc1"
85.2%

Query viability at 6 µg/mL on C6 for "COc1ccc(-c2cs/c(=N/NC(=O)CSc3ncccn3)n2-c2ccccc2)cc1"
89.6%

Query viability at 6 µg/mL on C6 for "N#Cc1ccc(-c2cs/c(=N/NC(=O)CSc3nnnn3-c3ccccc3)n2-c2ccccc2)cc1"
78.8%

Query viability at 6 µg/mL on C6 for "O=C(CSc1nnnn1-c1ccccc1)N/N=c1/scc(-c2ccc(F)cc2)n1-c1ccccc1"
74.9%

Query viability at 6 µg/mL on C6 for "Cn1cnnc1SCC(=O)N/N=c1/scc(-c2ccccc2)n1-c1ccccc1"
90%

Query viability at 6 µg/mL on C6 for "Cc1ccc(-c2cs/c(=N/NC(=O)CSc3nnnn3-c3ccccc3)n2-c2ccccc2)cc1"
66.8%

Query viability at 6 µg/mL on C6 for "COc1ccc(-c2cs/c(=N/NC(=O)CSc3nnc(C)s3)n2-c2ccccc2)cc1"
57.9%

Query viability at 6 µg/mL on C6 for "O=C(CSc1ncccn1)N/N=c1/scc(-c2ccc(Br)cc2)n1-c1ccccc1"
76.4%

Query viability at 6 µg/mL on C6 for "O=C(CSc1ncccn1)N/N=c1/scc(-c2ccc(F)cc2)n1-c1ccccc1"
84%

Query viability at 6 µg/mL on C6 for "Cc1ccc(-c2cs/c(=N/NC(=O)CSc3ncccn3)n2-c2ccccc2)cc1"
93.2%

====

system: C6; assay: Cytotoxicity against rat C6 cells assessed as cell viability at 100 ug/ml after 24 hrs by MTT assay relative to control; assay type: functional; settings: C6, 24 h, read-out: Activity
// returns criterion not met unless viability at 100 µg/mL is strictly below 30%, in which case criterion met

Answered cases to consult:
chemSmiles	assayedSystem	qualitativeLabel
Cc1ccc(-c2cs/c(=N/NC(=O)CSc3nncn3C)n2-c2ccccc2)cc1	C6	criterion not met
Cc1ccc(-c2cs/c(=N/NC(=O)CSc3ncccn3)n2-c2ccccc2)cc1	C6	criterion not met
COc1ccc(-c2cs/c(=N/NC(=O)CSc3nnc(C)s3)n2-c2ccccc2)cc1	C6	criterion met
Cc1ccc(-c2cs/c(=N/NC(=O)CSc3nnnn3-c3ccccc3)n2-c2ccccc2)cc1	C6	criterion met
Cc1nnc(SCC(=O)N/N=c2/scc(-c3ccccc3)n2-c2ccccc2)s1	C6	criterion not met

For "Cc1nnc(SCC(=O)N/N=c2/scc(-c3ccc(Cl)cc3)n2-c2ccccc2)s1" , is the recorded viability at 100 µg/mL below the cut-off of 30%?
criterion not met

For "O=C(CSc1nnnn1-c1ccccc1)N/N=c1/scc(-c2ccc(Cl)cc2)n1-c1ccccc1" , is the recorded viability at 100 µg/mL below the cut-off of 30%?
criterion not met

====

tested on: C6; assay: Cytotoxicity against rat C6 cells assessed as cell viability at 50 ug/ml after 24 hrs by MTT assay relative to control; assay type: functional; conditions: C6, 24 h, read-out: Activity
readoutKind: viability at 50 µg/mL (%)
Kindly provide the numeric value in % only, without the unit symbol.

Check out these entries, answers already filled in.
chemSmiles	units	readoutValue
Cn1cnnc1SCC(=O)N/N=c1/scc(-c2ccccc2)n1-c1ccccc1	%	62.4
O=C(CSc1nnnn1-c1ccccc1)N/N=c1/scc(-c2ccc(Cl)cc2)n1-c1ccccc1	%	60
O=C(CSc1nnnn1-c1ccccc1)N/N=c1/scc(-c2ccc(F)cc2)n1-c1ccccc1	%	43.7
O=C(CSc1ncccn1)N/N=c1/scc(-c2ccc(F)cc2)n1-c1ccccc1	%	55.5

Returns the measured viability at 50 µg/mL for the input molecule. Input: "Cc1nnc(SCC(=O)N/N=c2/scc(-c3ccc(F)cc3)n2-c2ccccc2)s1"
37.4

Returns the measured viability at 50 µg/mL for the input molecule. Input: "COc1ccc(-c2cs/c(=N/NC(=O)CSc3nnc(C)s3)n2-c2ccccc2)cc1"
31.5

Returns the measured viability at 50 µg/mL for the input molecule. Input: "Cc1ccc(-c2cs/c(=N/NC(=O)CSc3nncn3C)n2-c2ccccc2)cc1"
53.8

====

tested on: C6; test: Cytotoxicity against rat C6 cells after 24 hrs by MTT assay; assay type: functional, cell-based; details: C6, 24 h
The compounds listed here are annotated with their IC50.
Kindly provide the numeric value in µg/mL only, without the unit symbol.

chemSmiles	assayedSystem	units	IC50
O=C(CSc1ncccn1)N/N=c1/scc(-c2ccc(F)cc2)n1-c1ccccc1	C6	µg/mL	110
Cn1cnnc1SCC(=O)N/N=c1/scc(-c2ccccc2)n1-c1ccccc1	C6	µg/mL	68.3

Query IC50 on C6 for "O=C(CSc1nnnn1-c1ccccc1)N/N=c1/scc(-c2ccc(Br)cc2)n1-c1ccccc1"
21

Query IC50 on C6 for "Cn1nnnc1SCC(=O)N/N=c1/scc(-c2ccc(C#N)cc2)n1-c1ccccc1"
23.3

====

The compounds listed here are annotated with their viability at 50 µg/mL.
system: C6; assay: Cytotoxicity against rat C6 cells assessed as cell viability at 50 ug/ml after 24 hrs by MTT assay relative to control; type: functional; conditions: C6, 24 h, read-out: Activity
Kindly provide the numeric value in % only, without the unit symbol.

Check out these entries, answers already filled in.
chemSmiles	readoutValue
Cn1nnnc1SCC(=O)N/N=c1/scc(-c2ccc(C#N)cc2)n1-c1ccccc1	35.6
N#Cc1ccc(-c2cs/c(=N/NC(=O)CSc3nnnn3-c3ccccc3)n2-c2ccccc2)cc1	61.1
Cc1ccc(-c2cs/c(=N/NC(=O)CSc3nnnn3C)n2-c2ccccc2)cc1	44.3

Returns the measured viability at 50 µg/mL for the input compound. Input: "Cc1nnc(SCC(=O)N/N=c2/scc(-c3ccc(Cl)cc3)n2-c2ccccc2)s1"
37.9

Returns the measured viability at 50 µg/mL for the input compound. Input: "Cn1nnnc1SCC(=O)N/N=c1/scc(-c2ccccc2)n1-c1ccccc1"
56.2

Returns the measured viability at 50 µg/mL for the input compound. Input: "O=C(CSc1nnnn1-c1ccccc1)N/N=c1/scc(-c2ccccc2)n1-c1ccccc1"
36.7
